Tested on: Tobacco mosaic virus
Experiment: Antiviral activity against TMV assessed as curative effect by measuring inhibition rate at 0.5 mg/ml measured after 72 hrs relative to control
Assay type: functional
Design: scale not given: the % may be the effect or the level left
Entries and their Activity
Field format: number, assumed %, no unit text.

These solved cases illustrate the format of a correct answer.
>>> value("CC1(C)OC(=O)C=C[C@]2(C)[C@H]3CC[C@@]4(C)[C@H](c5ccoc5)OC(=O)[C@H]5O[C@]54[C@]3(C)OC(=O)C[C@@H]12")
17.5
>>> value("CC1(C)O[C@H]2CC(=O)OC[C@]23[C@H]2CC[C@@]4(C)[C@H](c5ccoc5)OC(=O)[C@H]5O[C@]54[C@]2(C)[C@@H](OC(=O)C/C=C/c2ccccc2)C[C@@H]13")
41.7
>>> value("CC1(C)OC(=O)C=C[C@]2(C)[C@H]3CC[C@@]4(C)[C@H](c5ccoc5)OC(=O)[C@H]5O[C@]54[C@]3(C)C(=O)C[C@@H]12")
7.7
>>> value("CC1(C)O[C@H]2CC(=O)OC[C@]23[C@H]2CC[C@@]4(C)[C@H](c5ccoc5)OC(=O)[C@H]5O[C@]54[C@]2(C)C(=O)C[C@@H]13")
5.8

Challenge: Identify measured Activity corresponding to "CC1(C)O[C@H]2CC(=O)OC[C@]23[C@H]2CC[C@@]4(C)[C@H](c5ccoc5)OC(=O)[C@H]5O[C@]54[C@]2(C)OC(=O)C[C@@H]13"
Response given: 13.1
